Data provenance is ChEMBL document CHEMBL5726139.

Molecular target: UniProtKB P50052
Sequence (P50052 whole entry): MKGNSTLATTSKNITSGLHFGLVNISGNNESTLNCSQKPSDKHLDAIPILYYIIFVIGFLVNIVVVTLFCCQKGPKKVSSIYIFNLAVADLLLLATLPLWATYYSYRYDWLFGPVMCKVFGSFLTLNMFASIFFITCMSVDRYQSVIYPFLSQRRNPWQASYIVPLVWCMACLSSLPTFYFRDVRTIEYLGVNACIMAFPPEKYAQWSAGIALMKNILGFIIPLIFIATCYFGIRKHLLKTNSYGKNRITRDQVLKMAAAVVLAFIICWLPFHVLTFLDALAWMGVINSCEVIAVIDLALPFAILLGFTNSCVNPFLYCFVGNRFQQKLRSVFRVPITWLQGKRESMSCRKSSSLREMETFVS
Would you mind telling me the reported IC50 of each entry?
Record the value in µM, omitting the unit from your answer.

Using known records, supply IC50 for "O=C(C(c1ccccc1)c1ccccc1)N1C[C@H](OCCCc2ccccc2)[C@H]1CO" 2.05

Using known records, supply IC50 for "CN(CCCc1ccc(F)cc1)[C@H]1C[C@@H](c2nnn[nH]2)N(C(=O)C(c2ccccc2)c2ccccc2)C1" 0.00352

Using known records, supply IC50 for "O=C(O)[C@@H]1C[C@H](NC(=O)N(c2ccccc2)c2ccccc2)CN1C(=O)C(c1ccccc1)c1ccccc1" 3.36

Using known records, supply IC50 for "O=C(C(c1ccccc1)c1ccccc1)N1C[C@@H](OCCCc2ccccc2)[C@H]1CO" 0.65
